tested.on: Aromatase (Homo sapiens, UniProt P11511)
Sequence (P11511 whole entry): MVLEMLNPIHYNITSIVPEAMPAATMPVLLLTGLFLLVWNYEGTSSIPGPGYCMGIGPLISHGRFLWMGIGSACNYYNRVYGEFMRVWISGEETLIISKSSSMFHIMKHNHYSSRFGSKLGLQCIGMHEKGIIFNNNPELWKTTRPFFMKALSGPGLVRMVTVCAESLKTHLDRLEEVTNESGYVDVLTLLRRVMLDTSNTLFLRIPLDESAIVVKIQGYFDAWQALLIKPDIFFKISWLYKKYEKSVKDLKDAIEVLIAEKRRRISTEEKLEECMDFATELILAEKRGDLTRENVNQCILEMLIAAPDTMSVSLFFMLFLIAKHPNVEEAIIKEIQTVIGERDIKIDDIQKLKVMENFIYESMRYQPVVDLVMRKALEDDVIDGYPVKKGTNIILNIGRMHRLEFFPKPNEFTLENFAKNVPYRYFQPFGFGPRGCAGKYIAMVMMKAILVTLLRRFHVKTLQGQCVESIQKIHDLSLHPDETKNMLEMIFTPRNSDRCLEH
run.description: Inhibition of aromatase in human SKBR3 cells by tritiated water release assay
Assay type: cell-based
experimental.parameters: sk-br-3
Below, each entry is listed with its recorded IC50.

O=C(Nc1ccc([N+](=O)[O-])cc1OCc1ccccc1)c1cccc([N+](=O)[O-])c1 :: > 25000 nM

Request: Requested field: IC50. Item: `COc1ccc(COc2cc([N+](=O)[O-])ccc2NS(C)(=O)=O)cc1`
Response: 7820 nM

Request: Form field: reported IC50 of `CS(=O)(=O)Nc1ccc([N+](=O)[O-])cc1OCc1ccc2ccccc2c1`
Response: 2170 nM

Request: Which IC50 is listed for `CN(c1ccc([N+](=O)[O-])cc1OCc1ccccc1-c1ccccc1)S(C)(=O)=O` ?
Response: 330 nM

Request: Quick one: IC50 of `COc1ccc(COc2cc([N+](=O)[O-])ccc2N(C)S(C)(=O)=O)cc1` ?
Response: 470 nM

Request: What value of IC50 has been recorded for this entry: `CN(c1ccc([N+](=O)[O-])cc1OCc1ccc(Cl)cc1)S(C)(=O)=O`
Response: 2400 nM

Request: What does the data say about its IC50? Entry: `CN(c1ccc([N+](=O)[O-])cc1OCc1ccc(Br)cc1)S(C)(=O)=O`
Response: 330 nM

----------
tested.on: Aromatase (Homo sapiens, UniProt P11511)
run.description: Inhibition of aromatase in human SKBR3 cells by tritiated water release assay
experimental.parameters: sk-br-3
recorded.metric: pIC50
Scale for pIC50: -log10 of concentration given in mol/L; no unit attached.

CS(=O)(=O)Nc1ccc([N+](=O)[O-])cc1OCc1ccc(-c2ccccc2)cc1 :: 6.07
CS(=O)(=O)Nc1ccc([N+](=O)[O-])cc1OCC1CCCCC1 :: 5.92
CS(=O)(=O)Nc1ccc([N+](=O)[O-])cc1OC1CCCCC1 [NS-398] :: 6.17
CN(c1ccc(NC(=O)c2ccc3ccccc3c2)cc1OCc1ccccc1)S(C)(=O)=O :: 5.97
CN(c1ccc([N+](=O)[O-])cc1OCc1ccccc1)S(C)(=O)=O :: 6.09

Request: Give Aromatase (Homo sapiens, UniProt P11511) pIC50 for `CS(=O)(=O)Nc1ccc([N+](=O)[O-])cc1OCc1ccccc1`
Response: 5.67

Request: Enter reported pIC50 observed with Aromatase (Homo sapiens, UniProt P11511) for `Cc1ccc(COc2cc([N+](=O)[O-])ccc2N(C)S(C)(=O)=O)cc1`
Response: 5.63

Request: Any idea what pIC50 came out for `CS(=O)(=O)Nc1ccc([N+](=O)[O-])cc1OCCc1ccccc1` on Aromatase (Homo sapiens, UniProt P11511)?
Response: 6.64

----------
tested.on: UniProt:P11511
run.description: Inhibition of aromatase in human SKBR3 cells by tritiated water release assay
experimental.parameters: sk-br-3
recorded.metric: IC50

O=C(Nc1ccc([N+](=O)[O-])cc1OCc1ccccc1)c1ccc2ccccc2c1 :: > 25 µM
O=C(Nc1ccc([N+](=O)[O-])cc1OCc1ccccc1)c1ccccc1 :: > 25 µM

Let us move to another entry and its IC50.
Request: Entry `N#Cc1ccc(C(=O)Nc2ccc([N+](=O)[O-])cc2OCc2ccccc2)cc1` : reported IC50 = ?
Response: > 25 µM

The origin of these recorded values is ChEMBL document CHEMBL1143195.
